test system: SF-295; assay: NCI tumour cell line growth inhibition, 48 h
Active and inactive are the calls of the source. Cut-off read from the data, not from the text of the source: active = GI50 up to about 1.1 µM and inactive = higher. Peptide text beside a SMILES is read from it. * marks the point of attachment. Boc = CC(C)(C)OC(=O)*
Classes used: active, inactive

| compound | category-label |
| --- | --- |
| CCSC1(SCC)CCN(/C=N/C(C)(C)C)C1 | inactive |
| Nc1nc(NCC2(CO)CC2)cc(=O)[nH]1 | inactive |
| Cc1nn(C)c2nc3ccc(Cl)cc3c(-c3ccccc3)c12 | inactive |
| CSCCC(NC(=O)C(CC(C)C)NC(=O)CNC(=O)OC(C)(C)C)C(=O)N(C)C (stereo not drawn) (Boc-Gly-Leu-Met-NMe2; configuration not given here) | inactive |
| CN(NC(=O)CCCl)C1=NCCCCN1 | inactive |
| CCN1CCC(O)(c2ccc(Oc3ccccc3)cc2)C(C(=O)c2ccc(Oc3ccccc3)cc2)C1 (stereo not drawn) | inactive |
| COc1cc(Nc2cnc3cc(C(F)(F)F)ccc3n2)cc(OC)c1OC | inactive |
| O=C1C2Cc3ccccc3CN2C(=O)N1CN1CCCCC1 (stereo not drawn) | inactive |
| Cc1c(N=NN(C)C)cc[n+]([O-])c1C | inactive |
| CN(N=O)C(=O)NNC(=O)N(C)N=O | inactive |
| CCCCCc1cccc(=O)o1 | inactive |
| CN(C)CCCSc1nc2ccccc2[nH]1 | inactive |
| Cn1c(=O)c2c(nc3n2CCC(=O)N3CCCCl)n(C)c1=O | inactive |
| CCO/C=C1\N=C(C(Cl)c2ccccc2)OC1=O (stereo not drawn) | inactive |
| CC(C)c1ccc(C2C3=C(N=C4SCC(=O)N42)C(=O)c2ccccc23)cc1 (stereo not drawn) | inactive |
| Cc1c(OCc2ccccc2)c(=O)ccn1CCc1c[nH]c2ccccc12 | inactive |
| COc1cc(Nc2nc3cc(C)ccc3nc2-c2ccccc2)cc(OC)c1OC | inactive |
| Cc1cc(S(=O)(=O)O)ccc1/N=N/c1c(O)ccc2ccccc12 | inactive |
| COc1cc(OCc2ccc3nc(-c4ccccc4)c(Cl)nc3c2)cc(OC)c1OC | inactive |
| CC1OC(n2cc(Cl)c(=O)[nH]c2=O)C=C(OC(=O)c2ccccc2)C1=O (stereo not drawn) | inactive |
| O=C(c1ccccc1)N1C(=S)N(c2ccccn2)C(=N/c2ccccc2)/C1=N\c1ccccc1 | inactive |
| Cc1ccc(SC2C(=O)C3CC(OCc4ccccc4)C2(C)C3(C)C)cc1 (stereo not drawn) | inactive |
| N/C(=N\O)N/N=C\c1cc([N+](=O)[O-])cc([N+](=O)[O-])c1O | inactive |
| CC(=O)NCC1(c2ccccc2)CCN(CC2COc3ccccc3O2)CC1 (stereo not drawn) | inactive |
| CCCCC[C@H](O)[C@H](C)C=C1SCCCS1 | inactive |
| COc1ccc2[nH]c3c(C)c4ccnc(NCCCN(C)CCCNC(=O)NCCCN(C)CCCNc5nccc6c(C)c7[nH]c8ccc(OC)cc8c7c(C)c56)c4c(C)c3c2c1 | active |
| O=C1CCCc2ccc([N+](=O)[O-])c(O)c21 | inactive |
| O=Cc1cn(CCCCCCCCn2cc(C=O)c3ccccc32)c2ccccc12 | inactive |
| C=C1c2[nH]c3c([N+](=O)[O-])c(OC)ccc3c2CCN1C(C)=O | inactive |
| Cn1cnnc1SC(F)(F)c1nc2ccccc2o1 | inactive |
| CC(C)COP(=O)(OCC(C)C)C(NS(=O)(=O)c1ccccc1)(C(F)(F)F)C(F)(F)F | inactive |
| CC(=O)N1CCn2c1nc1cc(Cl)ccc12 | inactive |
| COc1ccccc1Nc1nc(N)nc(N)c1N=O | inactive |
| c1ccc(COc2ncccc2C2SCCCS2)cc1 | inactive |
| O=C(NC(Cc1c[nH]c2ccccc12)C(=O)O)/C(=C/c1ccccc1)NC(=O)c1ccccc1 (stereo not drawn) | inactive |
| C(/Cc1ccc2c(c1)OCO2)=N\N=C1NCCCCN1 | inactive |
| COC(=O)[C@@H]1[C@H]2CC[C@]3(C)[C@@H](OC(C)=O)CC[C@H]3[C@@H]2CC[C@H]1C1(C)SCCS1 | inactive |
| COc1ccc(C2CCc3nc4nc(N)nc(N)c4cc3C2)cc1 (stereo not drawn) | inactive |
| [N-]=[N+]=NC1=C(N=[N+]=[N-])c2cccc3cccc(c23)C1=O | inactive |
| COc1cc(OC)cc(-n2c(N)c(-c3nc4ccccc4s3)c3ccc([N+](=O)[O-])cc3c2=O)c1 | inactive |
| CC(C)(C)c1ccc2c(c1)C#Cc1cc3c(cc1OCCCO2)C#Cc1cc(C(C)(C)C)ccc1OCCCO3 | inactive |
| COC(CNC(=O)C(C)NC(=O)/C=C/c1ccccc1)OC (stereo not drawn) | inactive |
| CSc1ccc(/C=C2\N=C(c3ccccc3)N(c3nc4cc(Cl)c(F)cc4s3)C2=O)cc1 | inactive |

====

Items are presented alongside their recorded GI50.
test system: NCI/ADR-RES; assay: NCI tumour cell line growth inhibition, 48 h
The source made the active and inactive calls. No stated cut-off is given here; in the data, active = GI50 up to about 1.1 µM and inactive = higher. Peptide text beside a SMILES is read from it.

| compound | GI50 |
| --- | --- |
| CCSC1=N/C(=C\c2ccco2)C(Nc2ccc(C)cc2)=N1 | > 100 µM (inactive) |
| COC(=O)/C=C(/C=C1/C(C#N)=C(N)N(c2ccc(Cl)cc2)C1(C)/C(=C/C(=O)OC)C(=O)OC)C(=O)OC (configuration not stated) | 53 µM (inactive) |
| CCCCOC(=O)C(NC(C(=O)OCCCC)c1cc(C(C)(C)C)c(O)c(C(C)(C)C)c1)c1cc(C(C)(C)C)c(O)c(C(C)(C)C)c1 (configuration not stated) | > 100 µM (inactive) |
| NC1=NN(c2ccccc2)C2(O)c3ccncc3C3=NN(c4ccccc4)C(=O)C132 (configuration not stated) | > 100 µM (inactive) |
| Cc1nc2c(=O)n(C)c(=O)nc-2n(CCO)c1C | > 100 µM (inactive) |
| CN(Cc1cnc2nc(N)nc(N)c2n1)c1ccc(C(=O)NCCCC(=O)O)cc1 | > 31.4 µM (inactive) |
| CC(=O)Nc1ccc2c(c1)/C(=C\c1ccc([N+](C)(C)C)cc1)c1ccccc1-2 | > 100 µM (inactive) |
| O=C1c2ccccc2-c2nnc(-c3ccc([N+](=O)[O-])cc3)cc21 | > 10 µM (inactive) |
| Cc1cccc(Nc2nc3ccccc3nc2NS(=O)(=O)c2ccccc2)c1 | 20 µM (inactive) |
| O=Cc1cc(C(=O)OCc2ccccc2)n(S(=O)(=O)c2ccccc2)c1 | 31 µM (inactive) |
| c1cnn(C23C4C5C6C4C2C6C53)c1 (configuration not stated) | > 100 µM (inactive) |
| O=C(CN1CCOCC1)c1ccc2c(c1)oc(=O)n2CCN1CCCC1 | > 100 µM (inactive) |
| COc1ccc(OC)c(NC(=O)C(=O)Nn2c(S)nc3ccccc3c2=O)c1 | > 100 µM (inactive) |
| CC12OOC(c3ccccc31)c1c2ccc2ccccc12 (configuration not stated) | 10 µM (inactive) |
| CC(=O)NC(CS)C(=O)NC(CO)C(=O)NC(CO)C(=O)NC(Cc1c[nH]c2ccccc12)C(=O)N1CCCC1C(=O)NC(CO)C(=O)NC(Cc1c[nH]c2ccccc12)C(=O)NC(Cc1c[nH]cn1)C(=O)NC(CO)C(=O)NC(Cc1c[nH]c2ccccc12)C(=O)NCC(=O)NCC(=O)NC(C)C(=O)NC(CCC(N)=O)C(=O)NC(CCCCN)C(=O)NC(C)C(=O)NC(CCCNC(=N)N)C(=O)NC(CCCCN)C(N)=O (configuration not stated) (Ac-CSSWPSWHSWGGAQKARK-NH2; configuration not given here) | > 50 µM (inactive) |
| O=NN(CCCl)C(=O)N[C@H]1CC[C@@H](C(=O)O)CC1 | > 100 µM (inactive) |
| COc1cc2c(cc1OC)OC(c1c(OC)ccc(OC)c1O)CC2 (configuration not stated) | > 100 µM (inactive) |

====

system: NCI-H226; test: NCI tumour cell line growth inhibition, 48 h
Active and inactive are the calls of the source. Cut-off read from the data, not from the text of the source: active = GI50 up to about 1.1 µM and inactive = higher.
Classes used: active, inactive

| compound | category-label |
| --- | --- |
| NC1=NN(c2ccccc2)C2(O)c3ccncc3C3=NN(c4ccccc4)C(=O)C132 (stereo not given) | inactive |
| O=S(=O)(O)c1ccc(-c2nnc(-c3ccccn3)nc2-c2ccc(S(=O)(=O)O)o2)o1 | inactive |
| CC(C)(C)OC(=O)CC(NC(=O)OC(C)(C)C)C(=O)N[C@@H]1CCCC[C@H]1C(=O)OCc1ccccc1 (stereo not given in full) | inactive |
| O=C(c1ccccc1)C1C(C(=O)c2ccccc2)N1Cc1ccccc1 (stereo not given) | inactive |
| COCN1C(N)=C(C(=O)OC(C)(C)C)C2=CC(=O)C=CC21C (stereo not given) | inactive |
| Oc1ccc(NCc2cc(O)ccc2O)cc1 | inactive |
| COc1ccc2[nH]c3c(C)c4ccnc(NCCCN(C)CCCNC(=O)NCCCN(C)CCCNc5nccc6c(C)c7[nH]c8ccc(OC)cc8c7c(C)c56)c4c(C)c3c2c1 | active |
| CC1=NN=C(C)C1/N=N/c1ccc2[nH]c(C)nc2c1 | inactive |
| CSCCC(C(=O)O)N(C)C (stereo not given) | inactive |
| O=C(C(Cl)=C(Nc1ccccc1)Nc1ccccc1)C(Cl)Cl | inactive |
